src = PubChem BioAssay (NCI)

- procedure.details: NCI Yeast Anticancer Drug Screen. Data for the cln2 rad14 strain (AID 165);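 also: 0% = growth equal to vehicle treated cultures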
- run.conditions: S. cerevisiae cln2 rad14 strain, at 50.0 µM (retest, dose inferred, filed as 5.0), hits give high values
Compounds without any hit were thinned out: in the full panel of roughly 79,000, 15% have a hit.
measured.parameter: growth inhibition (%)
Give the value in % but do not write % after it.

# example entries with known answers
CC(=O)OC1=CC2(OC(C)=O)CC(C)(C)C1C1C(=O)C=CC(=O)C12 (stereo not given) :: -10
Cc1ccc2c(c1)[n+]([O-])c(N)n[n+]2[O-] :: 47
CC(=O)N(C(C)=O)C1=C2c3ccccc3N(S(=O)(=O)c3ccccc3)C2n2c(=O)n(-c3ccccc3)c(=O)n2C1 (stereo not given) :: 61

stdin: GET /values?readout=growth inhibition&item= `CCOC(=O)/C(=C\c1cccc(OC)c1)C(C)=O`
stdout: 86

stdin: GET /values?readout=growth inhibition&item= `OC(c1ccc(Cl)cc1)c1ccc(Cl)cc1`
stdout: 100

stdin: GET /values?readout=growth inhibition&item= COC(=O)c1c(C)cccc1C1CN=NC12Cc1ccccc1C2=O (stereo not given)
stdout: 16

stdin: GET /values?readout=growth inhibition&item= O=S(=O)(O)CC[S][Sn]([S]CCS(=O)(=O)O)([c]1ccccc1)[c]1ccccc1 (tested in a mixture with another compound)
stdout: 94

----------
- procedure.details: NCI Yeast Anticancer Drug Screen. Data for the mlh1 rad18 strain (AID 175)
- run.conditions: S. cerevisiae mlh1 rad18 strain growth inhibition; at 50.0 µM; hits give high values
About 79,000 compounds went through this panel and 15% of them were active in at least one assay; those are over-represented in the sample as a whole.
measured.parameter: growth inhibition (%)
Give the value in % but do not write % after it.

# example entries with known answers
Nc1c(-c2ccc(C3=NCCN3)cc2)[nH]c2cc(C3=NCCN3)ccc12 :: -46.2
CC(=O)C1C(=O)C=C(C)OC1=O (stereo unspecified) :: 70.7
COc1cc2c(cc1OC)C(N(C)C)C(c1ccccc1)=C2Cl (stereo unspecified) :: 90.4
O=C(CC(=O)c1ccccc1)CC(O)(c1ccccc1)c1ccccc1 :: 86.5
O=c1cc(CSc2ccc(Cl)cc2)occ1O :: 55
O=C(OC1C=C=CS(=O)(=O)CC#C/C=C\1)c1cnc2ccccc2n1 (stereo unspecified) :: 69.3
CCOC(=O)c1c(C)n(C)c2c1nnc1ccccc12 :: 57.1
C(=Nc1ccccc1)c1cn(Cc2ccccc2)c2ccccc12 :: 36.9
CN/N=C(\C)C(CN1CCCCC1)C(C1=C(O)c2ccccc2OC1)c1ccccc1 (stereo unspecified) :: 72
COc1ccc(/C=N/N=c2\[nH][nH]/c(=N\N=C\c3ccc(OC)c4ccccc34)c3ccccc23)c2ccccc12 :: 65

Moving on to another compound below.
stdin: GET /values?readout=growth inhibition&item= `CSc1nc2ccccc2s1`
stdout: 4.2

----------
- procedure.details: NCI Yeast Anticancer Drug Screen. Data for the mec2-1 strain (AID 157)
- run.conditions: S. cerevisiae mec2-1 strain, at 50.0 µM
The panel holds about 79,000 compounds, 15% with a hit somewhere; the sample as a whole holds those more often. The source made the active and inactive calls. Rule as the data show it: active = growth inhibition above about 70%; inactive = the rest. Where a SMILES comes first, the peptide text is derived from it. The star is where a group is joined. Cbz = O=C(OCc1ccccc1)*
Give your call using only these classes: active, inactive

Some solved cases for reference:
CC1=CC(C)(C)Nc2cc(N)ccc21 :: inactive
C=C(C)C(CC=C(C)C)Cc1c(O)cc(OC)c2c1OC(c1ccc(O)cc1O)C(O)C2=O (stereo not given) :: inactive
Nc1ccccc1C(=O)/C=C/c1ccccc1 :: active
Cc1ccc(C)c(C(=O)CCN)c1 :: inactive
CC(=O)c1c2c(cc3c1CC1(Cc4cc5c(cc4C1)C(=O)CCC5)C3)CCCC2 (stereo not given) :: inactive
O=C(NC(Cc1ccc(O)cc1)C(=O)NC(Cc1ccccc1)C(=O)O)OCc1ccccc1 (stereo not drawn) (Cbz-Tyr-Phe-OH; configuration not given here) :: inactive
O=C1C2CCCC3CCCC(C(=O)N1O)C32 (stereo not given) :: active
CC1=CCC[C@@H]2C1(C)CCC(C)[C@@]2(C)CC1=CC(=O)C=CC1=O (stereo not given in full) :: active
COC(C(=O)C1=C2Oc3c4c(cc(O)c3C(=O)C2C2=C(CCCC2)C1=O)OC(C)(C)C=C4)C(C)CCC=C(C)C (stereo not given) :: active

stdin: Outcome logged for `C[C@]12C[C@H](c3ccccc3)Nc3ccccc3N1C(c1ccccc1)=NO2` in this assay:
stdout: inactive
